# Test system: PANDI (Fall panicum)
# Procedure Text: Leaf treatment test, fall panicum
# Type: in vivo, Panicum dichotomiflorum Michx
# Condition Info: treated amount 0.1 kg/ha, 14 days after treatment
Assay Metric: degree of damage to the plants (% damage) (%)
Numbers only, in %.

Past entries and their recorded results:
Compound: CC(Oc1ccc(Oc2nc3ccc(Cl)cc3o2)cc1)C(=O)N(C)c1ccccc1F (stereo not shown)
Reported Value: 100

Compound: CCOc1ccc(N(C)C(=O)C(C)Oc2ccc(Oc3nc4ccc(Cl)cc4o3)cc2)c(F)c1 (stereo not shown)
Reported Value: 0

Compound: COc1ccc(N(C)C(=O)C(C)Oc2ccc(Oc3nc4ccc(Cl)cc4o3)cc2)c(F)c1 (stereo not shown)
Reported Value: 20

Supply measured degree of damage to the plants (% damage) of CC(Oc1ccc(Oc2nc3ccc(Cl)cc3o2)cc1)C(=O)N(C)c1cc(F)ccc1F (stereo not shown) in your reply. 100
